Recorded values, source patent US20190284262A1.

biological target: T1, HLA-A*02:01 on T2 cells alone (no peptide added) (human); assay: flow cytometry, phage on T2 cells, no peptide
T1 construct: TAP-deficient T2 cells without pulsed peptide; negative control target, and the HLA molecule whose stabilisation by peptides is read in the T2 stabilization assay; also called HLA-A*02 molecule; HLA-A2 molecule
metric: MFI

Challenge: What MFI value was documented for this binder, EXT017-28 scFv phage clone (scFv, full-length scFv with His+HA tags; also called EXT017-28 phage; phage clone #28) scFv: QSVLTQPPSVSGAPGQRVTISCTGSSSNIGAGYDVHWYQQLPGTAPKLLIYGNSDRPSGVPDRFSGSKSGTSASLAITGLQAEDEADYYCQSYDSSLSGYVFGTGTKVTVLGSRGGGGSGGGGSGGGGSLEMAQMQLVQSGAEVKKPGSSVKVSCKASGGTFSTYAISWVRQAPGQGLEWMGGIIPIFGTANYAQKFQGRVTITADKSTSTAYMEVRNLRSEDTAVYYCARAEYVYGEYDQWGQGTLVTVSSTSGQAGQHHHHHHGAYPYDVPDYAS ?
Response given: 93.9
